PROTOCOL_DETAILS: Half life in rat
Format: ADME, organism-based
TEST_SETTINGS: in vivo
REPORTED_PROPERTY: half-life (h)
Express your answer in h, writing the number without its unit.

Fill in: half-life of COc1ccc(-n2c(C)nnc2-c2cnc(-c3ccc(F)cc3C)cn2)cn1 is ___
1

---

ASSAYED_TARGET: Vasopressin V1a receptor (Homo sapiens)
Sequence (P37288 whole entry): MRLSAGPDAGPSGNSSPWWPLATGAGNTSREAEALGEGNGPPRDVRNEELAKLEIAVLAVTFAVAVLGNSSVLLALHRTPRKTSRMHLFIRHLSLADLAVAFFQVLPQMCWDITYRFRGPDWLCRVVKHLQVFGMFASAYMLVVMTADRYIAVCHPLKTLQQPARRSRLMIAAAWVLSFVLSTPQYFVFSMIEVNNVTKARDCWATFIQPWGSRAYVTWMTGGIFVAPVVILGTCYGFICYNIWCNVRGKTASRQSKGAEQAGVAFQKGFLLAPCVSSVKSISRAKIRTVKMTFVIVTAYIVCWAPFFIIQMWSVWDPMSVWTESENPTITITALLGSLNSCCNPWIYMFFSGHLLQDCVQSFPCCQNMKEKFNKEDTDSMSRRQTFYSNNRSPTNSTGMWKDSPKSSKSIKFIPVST
PROTOCOL_DETAILS: Displacement of [3H]vasopressin from vasopressin V1a receptor in human liver tissue
REPORTED_PROPERTY: Ki (nM)
Record the value in nM, omitting the unit from your answer.

The following molecules have reported results that may help.
CC1(C)[C@@H]2CC[C@@]1(CS(=O)(=O)N1CCC3(C=Cc4ccccc43)CC1)[C@@](O)(CC(=O)O)C2 : 1600
COc1cc(OC2CCN(Cc3ccc[n+]([O-])c3C)CC2)ccc1C(=O)N1CCC(N2C(=O)OCc3ccccc32)CC1 : 3200

Value lookup for Ki; key = Cc1ccccc1N1CCN(S(=O)(=O)C[C@]23CC[C@H](C[C@@H]2NC(=O)[C@@H](N)CCS(C)(=O)=O)C3(C)C)CC1
180

---

Each entry below lists one item and its recorded bioavailability value.
PROTOCOL_DETAILS: Oral bioavailability in rat
Format: ADME, organism-based
TEST_SETTINGS: in vivo
Give just the numeric value; % need not be written.

// worked examples, bioavailability included
CO/N=C1/C[C@@H](CO)N(C(=O)c2ccc(-c3ccccc3C)cc2)C1 [NOLASIBAN] : 55
COc1cc(OC2CCN(Cc3ccc[n+]([O-])c3C)CC2)ccc1C(=O)N1CCC(N2C(=O)OCc3ccccc32)CC1 : 80
CC[C@H](C)[C@@H]1C(=O)N[C@H](C2Cc3ccccc3C2)C(=O)N1[C@@H](C(=O)N1CCOCC1)c1coc(C)n1 [RETOSIBAN] : 100
Cc1ccccc1N1CCN(S(=O)(=O)C[C@]23CC[C@H](C[C@@H]2NC(=O)[C@@H](N)CCS(C)(=O)=O)C3(C)C)CC1 : 35

Would you kindly look at the next entry?
What value of measured bioavailability is listed for CO/N=C1/C[C@@H](C(=O)NC[C@@H](O)c2ccccc2)N(C(=O)c2ccc(-c3ccccc3C)cc2)C1 ?
49

---

Species: Homo sapiens
PROTOCOL_DETAILS: Selectivity ratio of Ki for human oxytocin receptor Ki for human vasopressin V2 receptor
Collected Ratio Ki values appear next to each entry.

These solved cases illustrate the format of a correct answer.
O=C(Cn1cc(C(F)(F)F)ccc1=O)NCc1cc2cc(C(=O)N3CCC(N4C(=O)OCc5ccccc54)CC3)ccc2o1 : > 1500
CC(C)C[C@@H]1C(=O)N[C@H](C2Cc3ccccc3C2)C(=O)N1[C@@H](C(=O)NC(C)C)c1ccc(F)cc1 : > 300

Note: attention shifts to another entry.
Bench note: what Ratio Ki did COc1cc(OC2CCN(Cc3ccc[n+]([O-])c3C)CC2)ccc1C(=O)N1CCC(N2C(=O)OCc3ccccc32)CC1 show?
> 5700
